# Test system: OVCAR-3 ovarian
# assay-summary: NCI tumour cell line growth inhibition, 48 h
Recorded TGI for the following molecules

Known TGI results, listed for orientation:
| molecule | TGI |
| --- | --- |
| O=C(/C=C/c1ccccc1)/C=N/N1C(=S)N(c2ccccc2)C(=Nc2ccccc2)C1=Nc1ccccc1 | > 100 µM |
| N=c1oc2cc(O)ccc2cc1C(=O)NCc1ccccc1 | 57.9 µM |

So what's the measured TGI for this one? `O=[N+]([O-])C(C(Cl)=C(Cl)Cl)=C(N(Cc1ccccc1)Cc1ccccc1)N(Cc1ccccc1)Cc1ccccc1` > 100 µM

I have this molecule here, `C[C@]12CC[C@@H]3c4ccc(OP(=O)(O)O)cc4CC[C@H]3[C@@H]1CCC2=O` , and I need its recorded TGI. > 100 µM

Given the entry `O=C(Cc1ccccc1)NNc1nc(NNC(=O)c2ccncc2)nc(Nc2ccc([N+](=O)[O-])cc2)n1` , report its measured TGI. > 10 µM

Quick one: TGI of `CCOC(=O)c1cc(NS(=O)(=O)c2ccccc2)cc(C(=O)OCC)c1` ? > 100 µM

What measured TGI goes with `CCCNC(=O)c1cc(NC(=O)c2cc(NC(=O)/C=C/c3ccccc3)c(OC)c(OC)c2)c(OC)c(OC)c1` ? 17.9 µM

Returns the measured TGI for the input molecule. Input: `COc1ccc(/C(C#N)=C/c2ccccc2OC)cc1` > 100 µM

Quick one: TGI of CCC1C(C#N)=C(N)OC2=C1C(=O)CC(C)(C)C2 (stereo not given) ? > 100 µM

Could you share which TGI value was measured for `Cn1c(=S)[nH]c2sc3c(c2c1=O)CCSC3` ? 61 µM

* * *

Listing of entries alongside the reported TGI.
# Test system: HCT-116 colon
# assay-summary: NCI tumour cell line growth inhibition, 48 h
Number only, in µM; omit the unit.

Worked examples, 5 compounds total:
| compound | TGI (µM) |
| --- | --- |
| CN1CC[C@@]2(c3cccc(O)c3)CC(=O)/C(=C/c3ccccc3)[C@H]1C2 | 12.5 |
| O=C1c2cccnc2C(=O)c2nc3cc(N4CCN(C5CC5)CC4)ccc3nc21 | 7.12 |
| C1C[OH+]CC[OH+]CCNCC[OH+]CC[OH+]CCN1.N.[Cl-].[Pt+4] | 65.8 |
| N#Cc1c(N2CCCC2)[nH]c(=O)c(C(c2c(Cl)cccc2Cl)c2c(O)c(C#N)c(N3CCCC3)[nH]c2=O)c1O | 40 |
| COc1ccc2sc3c(NCCCN(C)C)nc4ccccc4c3c(=O)c2c1 | 3.01 |

I'd like to know its TGI. The compound in question is Nc1nc2c(c3ncncc13)C(c1cccc(C(F)(F)F)c1)Cc1ncncc1-2 (stereo unspecified) 37

Would you kindly share the measured TGI for `O=C(/C=C/c1ccccc1)CCN1CCN(CCC(=O)/C=C/c2ccccc2)CC1` ? 5.28

Reported TGI, compound `NC(=O)c1cc2cc(Cl)cc(Cl)c2oc1=Nc1ccc(F)cc1` : ____ 38.3

Name the recorded TGI for `COC(=O)[C@@]1(C)CC[C@]2(C)CC[C@]3(C)C4=CC=C5C(=CC(=O)C(O)=C5C)[C@]4(C)[C@@H](O)C[C@@]3(C)[C@@H]2C1` . 14.3

* * *

# System: HOP-92 NSCLC
# assay-summary: NCI tumour cell line growth inhibition, 48 h
Entries and their GI50 values follow.

| compound | study-system | property | result |
| --- | --- | --- | --- |
| COc1ccc(/C(=C2/O[C@@H]([C@H]3COC(C)(C)O3)[C@H]3OC(C)(C)O[C@@H]23)c2cc(OC)c(OC)c(OC)c2)cc1O | HOP-92 NSCLC | GI50 | 4000 nM |

Entry `O=C(CCCCCCC(=O)Nc1ccc(N(CCCl)CCCl)cc1)NO` , system HOP-92 NSCLC: what GI50 was measured? 1190 nM

Kindly state the measured GI50 obtained for `NCCn1c(=O)[nH]c(=O)[nH]c1=S` with HOP-92 NSCLC. > 100000 nM

Recall the recorded GI50 for `Cc1cc(N(CCCl)CCCl)ccc1C=Nc1ccc(-c2csc(Cc3ccccc3)n2)cc1` with HOP-92 NSCLC and state it. 1530 nM

Field: GI50 (HOP-92 NSCLC). Entry: CCCCCCCCCCCCCCCCN1CC2CCCCC2C1 (stereo not given) 2380 nM

* * *

Below, each of the compounds is paired with its reported TGI value.
# Test system: OVCAR-4 ovarian
# assay-summary: NCI tumour cell line growth inhibition, 48 h

Reference set, count: 4
| record-smiles | property | result |
| --- | --- | --- |
| CCOC(=O)c1c2c(n3ccccc13)C(=O)c1ccccc1C2=O | TGI | > 100 µM |
| Cn1cc(-c2ccc3occ(-c4cccc(-c5ccncc5)c4)c3n2)cn1 | TGI | > 100 µM |
| O=C(CCCN1CCC2(CC1)OC(=O)N(c1ccccc1)C2=O)c1ccccc1 | TGI | > 100 µM |
| O=C1/C(=C\c2c[nH]c3ccccc23)c2ccccc2N1c1c(Cl)cccc1Cl | TGI | 6.44 µM |

What reported TGI corresponds to `Cc1ccc(-c2cn3ccnc3c(-c3ccc(Cl)cc3)n2)cc1` on OVCAR-4 ovarian? > 100 µM

For OVCAR-4 ovarian, provide TGI of `O=C(/C=C(\O)c1ccccc1)C(=O)NNc1ccc([N+](=O)[O-])cc1[N+](=O)[O-]` please. 95 µM

Query the reported TGI for OVCAR-4 ovarian; item: `COc1ccc(/C=C2\NC(=S)N(CN3CCCCC3)C2=O)cc1` 78.8 µM

* * *

# Tested on: HS 578T breast
# assay-summary: NCI tumour cell line growth inhibition, 48 h
property: TGI (µM)
Answer format: numeric, µM implied, no suffix.

| compound | scale-unit | result |
| --- | --- | --- |
| COC(O)C(=O)c1c2c(cc3c1CC1(Cc4cc5c(cc4C1)CCC5)C3)CCC2 (configuration not stated) | µM | 53.3 |

Suppose we examine the compound `C[C@@H]1C[C@H]2CC[C@H](O2)[C@H](C)C(=O)O[C@@H](C)C[C@@H]2CC[C@@H](O2)[C@@H](C)C(=O)O[C@H](C)C[C@H]2CC[C@H](O2)[C@H](C)C(=O)O[C@@H](C)C[C@@H]2CC[C@@H](O2)[C@@H](C)C(=O)O1` ; what TGI value has been reported? 54.3

Find the recorded TGI belonging to `CC(=O)OCOC(=O)CN(CC(=O)OCOC(C)=O)Cc1cc2c(cc1OC(C)=O)Oc1cc(OC(C)=O)c(CN(CC(=O)OCOC(C)=O)CC(=O)OCOC(C)=O)cc1C21OC(=O)c2ccccc21` and report it. 1.59

* * *

# System: BT-549 breast
# assay-summary: NCI tumour cell line growth inhibition, 48 h
property: log10(TGI) (log10 of the value in µM)
Reminder: these figures are log10 of reported TGI, in µM before transformation.

| record-smiles | result |
| --- | --- |
| O=CC(=C(I)I)c1ccccc1 | 1.15 |
| O=C(/C=C/c1ccccc1)CCN1CCN(CCC(=O)/C=C/c2ccccc2)CC1 | 1.45 |
| O=C1c2cccnc2C(=O)c2nc3cc(N4CCN(C5CC5)CC4)ccc3nc21 | 0.38 |
| Cc1ccc(-c2cn3ccnc3c(-c3ccc(Cl)cc3)n2)cc1 | 1.81 |

Now turn to the next molecule.
Which log10(TGI) is listed for `COc1ccc2c(c1)cn1c3ccc(O)cc3nc(N)c21` ? 1.36

* * *

# Test system: HL-60(TB) leukemia
# assay-summary: NCI tumour cell line growth inhibition, 48 h
Catalogue of TGI readings, one per entry.

Guide cases for TGI, answers given:
| compound | study-system | TGI |
| --- | --- | --- |
| CC(=O)OCOC(=O)CN(CC(=O)OCOC(C)=O)Cc1cc2c(cc1OC(C)=O)Oc1cc(OC(C)=O)c(CN(CC(=O)OCOC(C)=O)CC(=O)OCOC(C)=O)cc1C21OC(=O)c2ccccc21 | HL-60(TB) leukemia | 0.0289 µM |
| COC(=O)[C@@]1(C)CC[C@]2(C)CC[C@]3(C)C4=CC=C5C(=CC(=O)C(O)=C5C)[C@]4(C)[C@@H](O)C[C@@]3(C)[C@@H]2C1 | HL-60(TB) leukemia | 28.9 µM |
| CN(C)CCCNC(CC#N)CCC#N (centres undefined) | HL-60(TB) leukemia | > 10 µM |
| C=CC/C=C/Cc1csc(C(C)(C)C(O)C/C=C/C(=C)CCNC(=O)OC)n1 (centres undefined) | HL-60(TB) leukemia | > 79.4 µM |
| Cc1ccc(N=Cc2ccc3c(c2)OCO3)cc1C | HL-60(TB) leukemia | > 100 µM |

Tell me the measured TGI of CNC(=O)OC(C)CN1c2ccccc2Sc2ccc(Cl)cc21 (centres undefined) , please. > 10 µM

// query TGI value for entry O=C(C1OC1c1ccc(O)cc1)C12CC3CC(CC(C3)C1)C2 (centres undefined) > 43.4 µM

What does the record list as TGI for `Cc1ccccc1[P+](Cc1ccccc1)(c1ccccc1)c1ccccc1` ? 4.04 µM

Look at this compound and give its reported TGI. `COc1ccc(OCc2nc3cc(C(F)(F)F)ccc3nc2-c2ccccc2)cc1` > 100 µM

From: PubChem BioAssay (NCI)
